# System Tested: human cloned CHRM4 receptor (Homo sapiens)
# Sequence (P08173 whole entry): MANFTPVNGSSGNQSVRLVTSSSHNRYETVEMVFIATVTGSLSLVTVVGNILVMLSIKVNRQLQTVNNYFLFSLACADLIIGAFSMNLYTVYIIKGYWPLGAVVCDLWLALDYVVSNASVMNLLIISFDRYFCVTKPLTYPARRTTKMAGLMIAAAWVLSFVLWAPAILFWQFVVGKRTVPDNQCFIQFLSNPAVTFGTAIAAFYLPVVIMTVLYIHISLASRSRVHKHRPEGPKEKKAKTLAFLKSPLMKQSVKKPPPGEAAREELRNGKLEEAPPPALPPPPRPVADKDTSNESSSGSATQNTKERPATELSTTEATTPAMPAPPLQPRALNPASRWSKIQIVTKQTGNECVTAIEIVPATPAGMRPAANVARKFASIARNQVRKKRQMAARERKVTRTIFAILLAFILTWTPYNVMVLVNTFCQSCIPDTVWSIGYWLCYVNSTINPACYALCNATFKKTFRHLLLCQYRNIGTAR
# Protocol Details: CHRM4 Ca++ Flux Assay (M4_CHO cells, agonist mode)
# Settings: geometric mean if tested more than once, read-out: M4 FDSS EC50
Property Name: EC50 (nM)
Write down the numeric answer in nM and omit the unit.

Before answering, review these 2 worked examples.
Molecule	Unit Name	EC50
Fc1ccc(O[C@H]2CCCOC2)c(C2CCN([C@@H]3COC4(C3)CN(c3nnco3)C4)CC2)c1 (single isomer, unassigned) [Example 2Q]	nM	130
Cc1nnc(COc2ccc(F)cc2C2CCN([C@@H]3COC4(C3)CN(c3nnco3)C4)CC2)s1 [Example 2E]	nM	1

Find the recorded EC50 belonging to Fc1cc(O[C@@H]2CCOC2)c(C2CCN([C@@H]3COC4(C3)CN(c3nncs3)C4)CC2)cc1F [Example 5M] and report it.
58

Same question, Fc1ccc(OC2CC3(COC3)C2)c(C2CCN([C@@H]3COC4(C3)CN(c3ncco3)C4)CC2)c1 [Example 4G] this time
17

Same question, OC[C@H]1C[C@H](Oc2ccc(F)cc2C2CCN([C@@H]3COC4(C3)CN(c3nnco3)C4)CC2)C1 (single isomer, unassigned) [Example 2II] this time
124

Same question, COc1ccccc1C1CCN([C@@H]2COC3(C2)CN(c2ncco2)C3)CC1 [Example 4N] this time
93

Same question, CC(C)(O)COc1ccccc1C1CCN([C@@H]2COC3(C2)CN(c2ncns2)C3)CC1 [Example 5Y] this time
109
